system: Sweetpotato Whitefly-Crawler (WF) (Bemisia tabaci) (BEMITA); assay: Insecticidal test for Sweetpotato Whitefly-crawler (WF) in foliar spray assay on cotton plants; assay type: in vivo; settings: 216 h, 200 ppm foliar spray on cotton plants, graded after 9 days, Abbott corrected % control, read-out: WF % Control (or Mortality) rating
Provide the reported mortality at 200 ppm of each item.

Input: Find mortality at 200 ppm (Sweetpotato Whitefly-Crawler (WF) (Bemisia tabaci) (BEMITA)) for the entry FC(F)(F)c1ccc(-c2cn(-c3cccnc3)nn2)cn1 [Compound F2]
Output: 0 to 80%

Input: I'm curious: which mortality at 200 ppm was measured for Clc1cccc(-c2cn(-c3cccnc3)nn2)n1 [Compound F10] tested on Sweetpotato Whitefly-Crawler (WF) (Bemisia tabaci) (BEMITA)?
Output: 0 to 80%

Input: // lookup mortality at 200 ppm | system=Sweetpotato Whitefly-Crawler (WF) (Bemisia tabaci) (BEMITA) | key= Cc1cccc(-c2cn(-c3cccnc3)nn2)n1 [Compound F12]
Output: 80 to 100%

Input: Which measured mortality at 200 ppm belongs to FC(F)(F)c1ccc(-c2cn(-c3cccnc3)nn2)nc1 [Compound F8] , tested on Sweetpotato Whitefly-Crawler (WF) (Bemisia tabaci) (BEMITA)?
Output: 80 to 100%

Input: Form field - read-out: mortality at 200 ppm; system: Sweetpotato Whitefly-Crawler (WF) (Bemisia tabaci) (BEMITA); submitted item: Cc1ccc(-c2cn(-c3cccnc3)nn2)nc1 [Compound F4]
Output: 80 to 100%

Input: What mortality at 200 ppm appears in the records for this compound with Sweetpotato Whitefly-Crawler (WF) (Bemisia tabaci) (BEMITA)? FC(F)(F)c1cccc(-c2cn(-c3cccnc3)nn2)n1 [Compound F7]
Output: 80 to 100%

Input: Hi! What's the reported mortality at 200 ppm for Clc1cccc(-c2cn(-c3cccnc3)nn2)c1 [Compound F11] on Sweetpotato Whitefly-Crawler (WF) (Bemisia tabaci) (BEMITA)?
Output: < 0%

Input: Missing value: mortality at 200 ppm, Sweetpotato Whitefly-Crawler (WF) (Bemisia tabaci) (BEMITA), entry FC(F)(F)Oc1cccc(-c2cn(-c3cccnc3)nn2)c1 [Compound F6] . Fill in?
Output: 0 to 80%

Input: Under Sweetpotato Whitefly-Crawler (WF) (Bemisia tabaci) (BEMITA): mortality at 200 ppm value of Brc1cccc(-c2cn(-c3cccnc3)nn2)n1 [Compound F9] ?
Output: 0 to 80%

Input: Give mortality at 200 ppm (Sweetpotato Whitefly-Crawler (WF) (Bemisia tabaci) (BEMITA)) of the following compound: Clc1ccccc1-c1cn(-c2cccnc2)nn1 [Compound F1]
Output: 0 to 80%
